MBC: recorded values
# Test system: S. aureus ATCC CRM 6538
# Format: cell-based, Staphylococcus aureus
Ends that are not written are not given here.
Write the value in µM as a bare number.

Name the recorded MBC for ALWKSILKNAGKAALNEINQIVQ-NH2 [SS1] .
8

***
Name the recorded MBC for ALWKKILKNAGKAVLNEINQIVQ-NH2 [Peptide 14V5K] .
4

Name the recorded MBC for ALWKSILKNAGKAVLNEINQIVQ-NH2 [Peptide 14V] .
4

====

# Test system: MRSA NCTC 12493
# Type: cell-based, Methicillin-resistant Staphylococcus aureus
Ends that are not written are not given here.
MBC: recorded values
Write the value in µM as a bare number.

Name the recorded MBC for ALWKSILKNAGKAVLNEINQIVQ-NH2 [Peptide 14V] .
8

Name the recorded MBC for ALWKSILKNAGKALNEINQIVQ-NH2 [Peptide L14] .
32

***
Name the recorded MBC for ALWKKILKNAGKAVLNEINQIVQ-NH2 [Peptide 14V5K] .
4

Name the recorded MBC for ALWKSILKNVGKVLNEINQIVQ-NH2 [Peptide L2V] .
4

====

Ends that are not written are not given here.
property label: time to eradicate bacteria

Name the recorded time to eradicate bacteria for ALWKKILKNAGKAVLNEINQIVQ-NH2 [Peptide 14V5K] .
< 10 min

====

# Tested on: K. pneumoniae ATCC 43816
# Type: cell-based, Klebsiella pneumoniae
# Description: The anti-planktonic microorganism efficacy of the peptides was investigated via minimal bacterial inhibitory concentration (MIC) and minimal bactericidal concentration (MBC) assays. […] For the MIC assay, microorganisms were inoculated with peptides in a 96-well plate. […] The MIC values were measured after overnight incubation at 37/26 °C. […]
Ends that are not written are not given here.
property label: MBC (µM)
Write the value in µM as a bare number.

Name the recorded MBC for ALWKSILKNAGKAALNEINQIVQ-NH2 [SS1] .
16

Could you now consider this next substance?
Name the recorded MBC for ALWKSILKNAGKAVLNEINQIVQ-NH2 [Peptide 14V] .
8

====

# System: S. aureus ATCC CRM 6538
# Format: cell-based, Staphylococcus aureus
Ends that are not written are not given here.
MIC: recorded values
Write the value in µM as a bare number.

Guide cases for MIC, answers given:
Name the recorded MIC for ALWKSILKNAGKAVLNEINQIVQ-NH2 [Peptide 14V] .
4

Name the recorded MIC for ALWKSILKNAGKAALNEINQIVQ-NH2 [SS1] .
8

Could you now consider this next substance?
Name the recorded MIC for ALWKKILKNAGKAVLNEINQIVQ-NH2 [Peptide 14V5K] .
4

====

MIC: recorded values
# System: A. baumannii ATCC BAA 747
# Format: cell-based, Acinetobacter baumannii
Ends that are not written are not given here.
Write the value in µM as a bare number.

Guide cases for MIC, answers given:
Name the recorded MIC for ALWKSILKNAGKAALNEINQIVQ-NH2 [SS1] .
16

Name the recorded MIC for ALWKSILKNAGKAVLNEINQIVQ-NH2 [Peptide 14V] .
4

Name the recorded MIC for ALWKSILKNAGKALNEINQIVQ-NH2 [Peptide L14] .
32

Name the recorded MIC for ALWKSILKNVGKVLNEINQIVQ-NH2 [Peptide L2V] .
4

Could you now consider this next substance?
Name the recorded MIC for ALWKKILKNAGKAVLNEINQIVQ-NH2 [Peptide 14V5K] .
8
